assay: Stability in mouse liver microsomes; format: in vitro ADME; conditions: male, CD-1, mouse, pooled liver microsomes; in the presence of NADPH, 37° C.; read-out: stability to oxidative metabolism in mouse liver microsomes (t1/2)
ASSAY_METRIC: half-life (min)

{"TEST_SMILES": "COc1cccc(C(=O)Nc2ccc(CC(=O)NCc3ccccc3)cc2)c1", "ASSAY_METRIC": "half-life", "MEASURED_RESULT": 35}

====

assay: Stability in human liver microsomes; assay type: in vitro ADME; settings: human, liver microsomes; in the presence of NADPH, 37° C.; read-out: stability to oxidative metabolism in human liver microsomes (t1/2)
ASSAY_METRIC: half-life (min)

{"TEST_SMILES": "COc1cccc(C(=O)Nc2ccc(CC(=O)NCc3ccccc3)cc2)c1", "MEASURED_RESULT": 35}
